Here the recorded T1/2β is given for each entry.
Assay: Pharmacokinetics after intraperitoneal administration in female SCID mice (plasma, LC-MS/MS, non compartmental analysis)
Format: in vivo
Conditions: 20 mg/kg IP, plasma, t½β (6 -> 24 h)
Experimental: The pharmacokinetics parameters of FK866, FE1199, VAL22-2 and MPM07 were determined following intraperitoneal administration (IP) in female SCID mice. […] Blood samples were collected on citrate at 10 min, 30 min, 1 h, 2 h, 4 h, 6 h, 8 h and 24 hours after drug administration. […] Samples were analyzed by LC-MS/MS (Liquid chromatography tandem-mass spectrometry); the lower limit of quantification achieved was between 3 and 12 nM depending on drug. […]

[
  {
    "COMPOUND": "O=C(/C=C/c1cccnc1F)NCCCCC1CCN(C(=O)c2ccccc2)CC1",
    "T1/2β": "8.58 h"
  },
  {
    "COMPOUND": "N#C/N=C(\\NC/C=C/CCC1CCN(C(=O)c2ccco2)CC1)Nc1ccncc1",
    "T1/2β": "10.11 h"
  },
  {
    "COMPOUND": "O=C(/C=C/c1cccnc1)NCCCCC1CCN(C(=O)c2ccccc2)CC1 [FK866, reference compound]",
    "T1/2β": "3.81 h"
  },
  {
    "COMPOUND": "O=C(/C=C/c1cccnc1F)NCCCCC1CCN(C(=O)c2cccs2)CC1",
    "T1/2β": "25.59 h"
  }
]

* * *

Assay: Pharmacokinetics after intraperitoneal administration in female SCID mice (plasma, LC-MS/MS, non compartmental analysis)
Assay type: in vivo
Conditions: 20 mg/kg IP, CL calculated as dose/AUC
Method: The pharmacokinetics parameters of FK866, FE1199, VAL22-2 and MPM07 were determined following intraperitoneal administration (IP) in female SCID mice. […] Blood samples were collected on citrate at 10 min, 30 min, 1 h, 2 h, 4 h, 6 h, 8 h and 24 hours after drug administration. […] Samples were analyzed by LC-MS/MS (Liquid chromatography tandem-mass spectrometry); the lower limit of quantification achieved was between 3 and 12 nM depending on drug. […]
Each entry below lists one item and its recorded CL value.

[
  {
    "COMPOUND": "N#C/N=C(\\NC/C=C/CCC1CCN(C(=O)c2ccco2)CC1)Nc1ccncc1 [FEI-199]",
    "CL / mL/h": 38.3
  },
  {
    "COMPOUND": "O=C(/C=C/c1cccnc1F)NCCCCC1CCN(C(=O)c2ccccc2)CC1 [VAL22-2]",
    "CL / mL/h": 23.6
  },
  {
    "COMPOUND": "O=C(/C=C/c1cccnc1F)NCCCCC1CCN(C(=O)c2cccs2)CC1 [MPM-07]",
    "CL / mL/h": 38.5
  },
  {
    "COMPOUND": "O=C(/C=C/c1cccnc1)NCCCCC1CCN(C(=O)c2ccccc2)CC1 [FK866, reference compound]",
    "CL / mL/h": 9.6
  }
]

* * *

tested on: pancreatic ductal adenocarcinoma (Panc-1); test: Anti-tumor activity on Panc-1: cell viability by sulforhodamine or MTT assay; assay type: cell-based; settings: Homo sapiens, Panc-1 cells, 96 hours treatment, 0.001-1000 nM
The recorded IC50 of each item maps onto one of these classes: low bin (below 3 nM), mid bin (3 nM to below 7 nM), high bin (7 nM or more)

[
  {
    "COMPOUND": "O=C(/C=C/c1cccnc1)NCCCCC1CCN(C(=O)c2ccno2)CC1",
    "LABEL": "mid bin"
  },
  {
    "COMPOUND": "N#C/N=C(\\NCCCCC1CCN(C(=O)c2cccs2)CC1)Nc1ccc(F)nc1",
    "LABEL": "high bin"
  },
  {
    "COMPOUND": "COc1cc(OC)c(C(=O)N2CCC(CCCCNC(=O)/C=C/c3cccnc3)CC2)c(OC)c1",
    "LABEL": "low bin"
  },
  {
    "COMPOUND": "O=C(/C=C/c1cccnc1)NC/C=C/CC1CCN(C(=O)c2cccs2)CC1",
    "LABEL": "low bin"
  },
  {
    "COMPOUND": "N#C/N=C(\\NCCCCCC1CCN(C(=O)c2ccco2)CC1)Nc1ccncc1",
    "LABEL": "low bin"
  },
  {
    "COMPOUND": "N#C/N=C(\\NC/C=C/CCC1CCN(C(=O)c2cccs2)CC1)Nc1cccnc1",
    "LABEL": "mid bin"
  },
  {
    "COMPOUND": "N#C/N=C(\\NC/C=C/CCC1CCN(C(=O)c2ccccc2)CC1)Nc1cccnc1",
    "LABEL": "mid bin"
  },
  {
    "COMPOUND": "O=C(/C=C/c1ccc(F)nc1F)NCCCCC1CCN(C(=O)c2ccccc2)CC1",
    "LABEL": "high bin"
  },
  {
    "COMPOUND": "N#C/N=C(\\NC/C=C/CCC1CCN(C(=O)c2ccco2)CC1)Nc1ccncc1",
    "LABEL": "low bin"
  },
  {
    "COMPOUND": "COc1cc(OC)c(C(=O)N2CCC(C/C=C/CNC(=O)/C=C/c3cccnc3)CC2)c(OC)c1",
    "LABEL": "low bin"
  },
  {
    "COMPOUND": "N#C/N=C(\\NC/C=C/CCC1CCN(C(=O)c2ccco2)CC1)Nc1cccnc1",
    "LABEL": "mid bin"
  },
  {
    "COMPOUND": "O=C(/C=C/c1cccnc1F)NCCCCC1CCN(C(=O)c2cccs2)CC1",
    "LABEL": "low bin"
  },
  {
    "COMPOUND": "COc1cc(C=O)cc(OC)c1C(=O)N1CCC(CCCCNC(=O)/C=C/c2cccnc2F)CC1",
    "LABEL": "high bin"
  },
  {
    "COMPOUND": "O=C(/C=C/c1cccnc1)NC/C=C/CC1CCN(C(=O)c2ccccc2)CC1",
    "LABEL": "high bin"
  },
  {
    "COMPOUND": "N#C/N=C(\\NC/C=C/CCC1CCN(C(=O)c2ccccc2)CC1)Nc1ccncc1",
    "LABEL": "mid bin"
  },
  {
    "COMPOUND": "COc1cc(C=O)cc(OC)c1C(=O)N1CCC(CCCCNC(=O)/C=C/c2cccnc2)CC1",
    "LABEL": "low bin"
  },
  {
    "COMPOUND": "O=C(/C=C/c1cccnc1)NCCCCC1CCN(C(=O)c2ccccc2)CC1 [FK866, reference compound]",
    "LABEL": "high bin"
  }
]
